Hey, just so you know, these numbers are from the RNAGym collection of RNA variant scans (doi:10.1073/pnas.2313332121).

B1: TPR t1 (parent)
chain: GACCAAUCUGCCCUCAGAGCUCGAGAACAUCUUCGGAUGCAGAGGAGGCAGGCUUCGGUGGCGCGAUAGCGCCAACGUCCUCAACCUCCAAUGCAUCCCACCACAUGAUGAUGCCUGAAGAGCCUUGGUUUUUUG

# Variants of: B1
# Assay Text: polymerase ribozyme fitness, log enrichment relative to wild type (log ratio); higher = more active; in vitro selection for triplet polymerase activity
Measured Quantity: polymerase ribozyme fitness (log ratio)
Enter the number alone.

// worked examples, polymerase ribozyme fitness (log ratio) included
G69A U92A : -6.38
G10A C13U G61U : -0.325
G39A G71C : -2.63
U9G G19U G44A G58C C64U A74G : -4.3
G57A G60A : -0.384

Field: next variant
Complete the entry with polymerase ribozyme fitness (log ratio) for C11A A46U C64A G113U
-6.19
